Target: T1, recombinant Macaca mulatta ErbB2-ECD (Macaca mulatta, UniProt I0FM22 23-652)
T1 construct: extracellular domain
Test: indirect ELISA, coated ErbB2-ECD
MEASURED_ATTRIBUTE: binding result

5F12 chimera (antibody, V domains shown, also called 5F12 chimeric; 5F12 chimeric antibody) VH: QVQLQQSGAELARPGASVKMSCKASGYTFTSYTMHWIKQRPGQGLEWIGYINPSSSYTNYNQNFKDKATLTADKSSSTANMQLNSLTSEDSAVYYCARASSYSLDYWGQGTALTVSS VL: DIQMTQSPSSLSTSLGGKVTITCKASQDINKYIAWYQHKPGKGPRLLIHSTSTLYPGIPSRFSGSGSGKDYSFRITNLEPEDIATYYCLQYDNLLWTFGGGTKLGIR :: binds
4G6 chimera (antibody, V domains shown, also called 4G6 chimeric antibody) VH: QVQLQQSGAELARPGASVKMSCKASGYTFTSYTMHWVKQRPGQGLEWIGYINPSSAYTNYNQKFKDKATLTADKSSSTANMQLNSLTSEDSAVYYCARASAYSLDYWGQGTALTVSS VL: DIQMTQSPSSLSASLGGKVTITCKASQDINKYIAWYQHKPGKGPRLLIHSTSTLYPGIPSRFSGSGSGRDYSFRITNLEPEDIATYYCLQYDNLLWTFGGGTKVGIR :: binds
4C9 chimera (antibody, V domains shown, also called 4C9 chimeric antibody) VH: QVQLQQSGAELARPGASVKMSCKASGYTFTSYTMHWVKQRPGQGLDWIGYINPSSGYTTYNQKFKDKATLTADKSSSTAYMQLSSLASADSAVYYCARASAYSLDYWGQGTTLTVSS VL: DIQMTQSPSSLSASLGGRVTITCKASHDIDRYIAWYQHKPGKGPRLLIHYTSTLQPGIPSRFSGSGSGRDYSFSISNLEPEDIATYYCLKYDNLLWTFGGGTKLEIT :: binds
4H2 chimera (antibody, V domains shown, also called 4H2 chimeric antibody) VH: QVQLQQSGAELARPGASVKMSCKASGFTFTSYTIHWVKQRPGQGLDWIGYINPSSGYTTYNQRFKDKATLTADKSSSTAYMQLSSLTSADSAVYYCARASAYSLDYWGQGTTLTVSS VL: DIQMTQSPSSLSASLGGKVTITCKASQDIDRYIAWYQHKPGKGPRLLIHYTSTLQPGIPSRFSGSGSGRNYSFSISNLEPEDIATYYCLKYDNLLWTFGGGTKLEIK :: binds
